Test system: 931267-113-T-J1-PDC multicell spheroid viability
Assay: Anticancer human tumor 931267-113-T-J1-PDC patient-derived colon adenocarcinoma cell line growth inhibition [PI3K]
Conditions: second compound 0.01 µM; first compound 10 µM; hits give low values
Each record's viability, T/C is compared with bottom range = under 30%, center range = from 30% up to 70%, top range = 70% and over to give its class.

Solved entries (count: 5):
MOLECULE: CC1(C)CCC(Nc2ncc(C(F)(F)F)c(-c3c[nH]c4c(P(C)(C)=O)c(C#N)ccc34)n2)CN1 (stereo not given) + COc1c(OCCCN2CCOCC2)ccc2c3n(c(=NC(=O)c4cnc(N)nc4)nc12)CCN3
GROUP_LABEL: center range

MOLECULE: Cn1ncc(Cl)c1-c1cc(C(=O)NC(CN)Cc2cccc(F)c2)sc1Cl (stereo not given) + CC(Nc1ccc2c(c1)OCCn1cc(N3C(=O)OCC3C(F)F)nc1-2)C(N)=O
GROUP_LABEL: bottom range

MOLECULE: CCCS(=O)(=O)Nc1ccc(F)c(C(=O)c2c[nH]c3ncc(-c4ccc(Cl)cc4)cc23)c1F + COc1c(OCCCN2CCOCC2)ccc2c3n(c(=NC(=O)c4cnc(N)nc4)nc12)CCN3
GROUP_LABEL: bottom range

MOLECULE: CC1(C)CCC(CN2CCN(c3ccc(C(=O)NS(=O)(=O)c4ccc(NCC5CCOCC5)c([N+](=O)[O-])c4)c(Oc4cnc5[nH]ccc5c4)c3)CC2)=C(c2ccc(Cl)cc2)C1 + CC(Nc1ccc2c(c1)OCCn1cc(N3C(=O)OCC3C(F)F)nc1-2)C(N)=O
GROUP_LABEL: bottom range

MOLECULE: CCCS(=O)(=O)Nc1ccc(F)c(C(=O)c2c[nH]c3ncc(-c4ccc(Cl)cc4)cc23)c1F + CC(Nc1ccc2c(c1)OCCn1cc(N3C(=O)OCC3C(F)F)nc1-2)C(N)=O
GROUP_LABEL: bottom range

(Q) In plain terms, what class is CNC(=O)c1ccc(N2C(=S)N(c3ccc(C#N)c(C(F)(F)F)c3)C(=O)C2(C)C)cc1F + CC(Nc1ccc2c(c1)OCCn1cc(N3C(=O)OCC3C(F)F)nc1-2)C(N)=O ?
(A) top range

(Q) // bin(item) where item = CC(Cn1ccc(-c2ccc(C#N)c(Cl)c2)n1)NC(=O)c1cc(C(C)O)[nH]n1 (stereo not given) + CC(Nc1ccc2c(c1)OCCn1cc(N3C(=O)OCC3C(F)F)nc1-2)C(N)=O
(A) top range

(Q) Determine which band this molecule sits in: Cn1ncc(Cl)c1-c1cc(C(=O)NC(CN)Cc2cccc(F)c2)sc1Cl (stereo not given) + COc1c(OCCCN2CCOCC2)ccc2c3n(c(=NC(=O)c4cnc(N)nc4)nc12)CCN3
(A) center range

----------
Test system: 931267-113-T-J1-PDC multicell spheroid viability
Assay: Anticancer human tumor 931267-113-T-J1-PDC cell line growth inhibition [PI3K];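 also: viability read 7 days after compound addition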
Conditions: second compound 0.00316 µM; first compound 10 µM; hits give low values
Recorded viability, T/C by entry
Report the figure in % without appending any unit label.

COMPOUND: CC1(C)CCC(CN2CCN(c3ccc(C(=O)NS(=O)(=O)c4ccc(NCC5CCOCC5)c([N+](=O)[O-])c4)c(Oc4cnc5[nH]ccc5c4)c3)CC2)=C(c2ccc(Cl)cc2)C1 + CC(Nc1ccc2c(c1)OCCn1cc(N3C(=O)OCC3C(F)F)nc1-2)C(N)=O
ATTRIBUTE_MEASURED: viability, T/C
UNIT_STRING: %
OBS_VALUE: 17.5

COMPOUND: CNC(=O)c1ccc(N2C(=S)N(c3ccc(C#N)c(C(F)(F)F)c3)C(=O)C2(C)C)cc1F + COc1c(OCCCN2CCOCC2)ccc2c3n(c(=NC(=O)c4cnc(N)nc4)nc12)CCN3
ATTRIBUTE_MEASURED: viability, T/C
UNIT_STRING: %
OBS_VALUE: 104

Let's switch to this compound now.
(Q) I would be grateful if you could share the reported viability, T/C for Cn1nccc1Nc1nccc(-c2ccn(C(CO)c3ccc(Cl)c(F)c3)c(=O)c2)n1 (stereo not drawn) + CC(Nc1ccc2c(c1)OCCn1cc(N3C(=O)OCC3C(F)F)nc1-2)C(N)=O .
(A) 47.4
